test system: MDA-MB-468 breast; test: NCI tumour cell line growth inhibition, 48 h
*1 amine or outer side, *2 acyl side, *3 side chain or, on linkers, in order; H or OH if unused. Where a SMILES comes first, the peptide text is derived from it. [ ]: non-standard residue; d: D form. The star is where a group is joined. X11 = C/C=C/CC(C)C(O)[C@H](N[*:1])C(=O)[*:2]; Decanoyl = CCCCCCCCCC(=O)*; Leu(ol) = CC(C)C[C@H](N)CO; Aib = CC(C)(N)C(=O)O
value.kind: TGI (µM)
Numeric answer only, unit µM assumed.

compound	TGI / µM
O=C(Nc1cccc(-n2cc(-c3ccncc3)c(-c3ccc(Cl)c(O)c3)n2)c1)Nc1ccc(Cl)c(Cl)c1	4.25
C/C=C/CC(C)C(O)[C@H](NC(=O)[C@@H]1CCCN1C(=O)C(C)(C)NC(=O)CCCCCCCCC)C(=O)NC(C)(C)C(=O)N[C@@H](CCC(N)=O)C(=O)N[C@H](CCC(N)=O)C(=O)NC(C)(C)C(=O)NC(C)(C)C(=O)N[C@@H](CCC(N)=O)C(=O)N[C@H](CC(C)C)C(=O)N[C@H](CO)CC(C)C (stereo partly drawn) (Decanoyl-[Aib]P[X11][Aib]Q[dQ][Aib][Aib]Q[dL][Leu(ol)])	2.98
Cc1cnc(-c2ccc(-c3ccc(NC(=O)Nc4c(F)cc(F)cc4F)cc3F)c3c2C(=O)NC3)[nH]1	3.86

Q) Looking for the measured TGI of Nc1ncnc2c1ccn2-c1cccc(NC(=O)c2ccc(N3CCOCC3)c(C(F)(F)F)c2)c1 , can you help?
A) 7.07

Q) Also, O=C1OCC2=C1C(c1cccc(Cl)c1)c1cc3c(cc1N2CCO)CCC3 (configuration not stated) please.
A) 0.84

Q) Also, Nc1nc(N)c2c(n1)CCC(S(=O)(=O)c1ccc3ccccc3c1)C2 (configuration not stated) please.
A) 33

Q) Also, COc1cc(N2CCC(N)CC2)ccc1Nc1ncc(Cl)c(-c2c[nH]c3ccccc23)n1 please.
A) 1.74

Q) Also, Cc1cc(-c2cc(OC(=O)c3ccccc3)ccc2Cl)cc2nnc(Nc3ccc(OCCN4CCCC4)cc3)nc12 please.
A) 2.91

Q) Also, CCc1ccc(SC2c3ccc(N(CC)CC)cc3Oc3nc(N)c(C#N)c(N)c32)cc1 (configuration not stated) please.
A) 3.06

Q) Also, Nc1c(C(=O)Nc2cccc(C(F)(F)F)c2)sc2nc3c(cc12)CCCCCC3 please.
A) 3.32

Q) Also, CN1CCN(Cc2ccc(NC(=O)c3cncc(C#Cc4cnc5ccc(OCCCS(C)(=O)=O)nn45)c3)cc2C(F)(F)F)CC1 please.
A) 1.68

Q) Also, Cc1cc(C)c2c(c1)N(C)c1ncnc(-n3cnc4cc(C)ccc43)c1CC2C (configuration not stated) please.
A) 27

Q) Also, C[C@]12CC[C@H]3[C@@H](CC[C@]4(O)C[C@@H](O[C@@H]5O[C@H](CO)[C@@H](O[C@@H]6OC[C@@H](O)[C@H](O)[C@H]6O)[C@H](O)[C@H]5O)CC[C@]34C=O)[C@@]1(O)CC[C@@H]2C1=CC(=O)OC1 please.
A) 32.3

---

system: MDA-MB-468 breast; assay: NCI tumour cell line growth inhibition, 48 h; in the data active means GI50 below about 0.43 µM; inactive means the rest
Log the outcome using a class from t = active, f = inactive

Worked set:
molecule	label
CC(=O)ON=C1C=CC(=C(C#N)c2ccccc2)C=C1	t
CCc1ccc(SC2c3ccc(N(CC)CC)cc3Oc3nc(N)c(C#N)c(N)c32)cc1 (stereo unspecified)	f
COc1cc(N(CCCl)CCCl)ccc1/C=N\NC(=O)c1cccnc1	f
CC[C@@]1(O)C(=O)OCc2c1cc1n(c2=O)Cc2c-1nc1cc(F)c(C)c3c1c2[C@@H](NC(=O)CO)CC3	t
CCN(CC)CC(O)c1cc(-c2ccc(Cl)cc2)nc2c(C)c(Cl)ccc12 (stereo unspecified)	f

Next up:
Q) So what was the verdict on CCCCCCCCCCCCCCCCCCOc1ccccc1COP(=O)(O)OOCC[N+](C)(C)C in this test?
A) f

---

test system: MDA-MB-468 breast; test: NCI tumour cell line growth inhibition, 48 h
value.kind: TGI

Would you please look over these solved cases?
COC(=O)Nc1nc2ccc(C(=O)c3ccc(F)cc3)cc2[nH]1 > 100 µM
COc1cc(C)[nH]c(=O)c1CNC(=O)c1c(C)n([C@H](C)C2CCN(CC(F)(F)F)CC2)c2ccccc12 > 100 µM
CC/C(=C(/c1ccc(OCCN(C)C)cc1)c1ccc(OC(=O)CCCCCCCCC(=O)c2c(C)[nH]c(/C=C3\N=C(c4ccc[nH]4)C=C3OC)c2C)cc1)c1ccccc1 > 100 µM

Q) // lookup TGI | system=MDA-MB-468 breast | key= CC[C@@]1(O)C(=O)OCc2c1cc1n(c2=O)Cc2c-1nc1cc(F)c(C)c3c1c2[C@@H](NC(=O)CO)CC3
A) < 0.01 µM

---

test system: MDA-MB-468 breast; test: NCI tumour cell line growth inhibition, 48 h
# GI50 values compiled below

molecule	target.entity	value.kind	endpoint.result
Fc1ccc(Nc2nc3nonc3nc2Nc2ccc(I)cc2)cc1	MDA-MB-468 breast	GI50	0.251 µM
Nc1n[nH]c2ccc([C@@H]3Nc4ccc5cn[nH]c5c4[C@H]4C5CCC(C5)[C@@H]34)cc12 (stereo not given in full)	MDA-MB-468 breast	GI50	0.33 µM
Cc1cc(-c2cc(OC(=O)c3ccccc3)ccc2Cl)cc2nnc(Nc3ccc(OCCN4CCCC4)cc3)nc12	MDA-MB-468 breast	GI50	1.32 µM

Q) Looking for the measured GI50 of C=CC(=O)N1CCC[C@@H](n2nc(-c3ccc(Oc4ccccc4)cc3)c3c(N)ncnc32)C1 , can you help?
A) 0.0674 µM

Q) Also, N#CC1=C(c2ccco2)Nc2c(c(-c3ccccc3)nn2-c2ccccc2)C12C(=O)Nc1ccc(Cl)cc12 (stereo not given) please.
A) 19 µM

Q) Also, Nc1ncnc2c1ccn2-c1cccc(NC(=O)c2ccc(N3CCOCC3)c(C(F)(F)F)c2)c1 please.
A) 2.13 µM

Q) Also, Cc1cc(C)c2c(c1)N(C)c1ncnc(-n3cnc4cc(C)ccc43)c1CC2C (stereo not given) please.
A) 3.24 µM

Q) Also, COc1ncc(-c2ccc3nccc(C#CCCCCC(=O)NO)c3c2)cc1NS(=O)(=O)c1ccc(F)cc1F please.
A) 0.0214 µM

Q) Also, COCCn1c2c([n+](Cc3cnccn3)c1C)C(=O)c1ccccc1C2=O please.
A) < 0.01 µM

Q) Also, COc1ccc2nc(Cl)c(-c3cc(-c4ccccc4)nc(N)n3)cc2c1 please.
A) 4 µM
